I'd appreciate it if you could supply normalised thallium flux (F/F0 slope) values for the items below.
target: Solute carrier family 12 member 5 (Homo sapiens); assay: KCC2 modulators in sodium-free buffer, confirmation, cell-based, HEK293 KCC2, thallium flux, secondary assay (AID 1713); details: FluoZin2 fluorescence, at 10 µM, stronger effect = higher value
Some of the results follow. Results filed as inconclusive are left out.
No unit in the answer, please; the number alone is enough.

Data request: Item: Cc1ccc(/C=N/NC(=S)NC2CCCCC2)o1 Test system: Solute carrier family 12 member 5 (Homo sapiens) Read-out: normalised thallium flux (F/F0 slope) Value: ?
Data returned: 0.0109

Data request: Item: CCc1cc(-c2n[nH]c(=S)n2CC(C)C)cs1 Test system: Solute carrier family 12 member 5 (Homo sapiens) Read-out: normalised thallium flux (F/F0 slope) Value: ?
Data returned: 0.0137

Data request: Item: CCOc1ccc(C(=O)NCCCN2CCCC2=O)cc1 Test system: Solute carrier family 12 member 5 (Homo sapiens) Read-out: normalised thallium flux (F/F0 slope) Value: ?
Data returned: 0.00821

Data request: Item: CC[C@@H](C)[C@@H](C(=O)N1CCN(C(=O)OC(C)(C)C)CC1)n1cc(CCC(=O)O)nn1 Test system: Solute carrier family 12 member 5 (Homo sapiens) Read-out: normalised thallium flux (F/F0 slope) Value: ?
Data returned: 0.0104

Data request: Item: S=c1[nH]nc(Nc2ccccc2)s1 Test system: Solute carrier family 12 member 5 (Homo sapiens) Read-out: normalised thallium flux (F/F0 slope) Value: ?
Data returned: 0.00869

Data request: Item: Cc1ccc(/C=N/NC(=S)Nc2cccc(S(=O)(=O)N(C)C)c2)o1 Test system: Solute carrier family 12 member 5 (Homo sapiens) Read-out: normalised thallium flux (F/F0 slope) Value: ?
Data returned: 0.00805

Data request: Item: CCCCn1c(=S)[nH]c2ncccc2c1=O Test system: Solute carrier family 12 member 5 (Homo sapiens) Read-out: normalised thallium flux (F/F0 slope) Value: ?
Data returned: 0.0429

Data request: Item: Cn1c(C(=O)NCCc2ccsc2)cc2c(=O)n(C)c3ccccc3c21 Test system: Solute carrier family 12 member 5 (Homo sapiens) Read-out: normalised thallium flux (F/F0 slope) Value: ?
Data returned: 0.00557

Data request: Item: CCCCn1c(=S)[nH]c2ccccc2c1=O Test system: Solute carrier family 12 member 5 (Homo sapiens) Read-out: normalised thallium flux (F/F0 slope) Value: ?
Data returned: 0.05

Data request: Item: COc1cccc2sc(Nc3nc(C)c(C(C)=O)s3)nc12 Test system: Solute carrier family 12 member 5 (Homo sapiens) Read-out: normalised thallium flux (F/F0 slope) Value: ?
Data returned: 0.00922

Data request: Item: Cc1ccc(-n2ncc3c(Nc4cccc(C(=O)O)c4)ncnc32)cc1 Test system: Solute carrier family 12 member 5 (Homo sapiens) Read-out: normalised thallium flux (F/F0 slope) Value: ?
Data returned: 0.00874

Data request: Item: S=c1nccc(-c2cc(Cl)sc2Cl)[nH]1 Test system: Solute carrier family 12 member 5 (Homo sapiens) Read-out: normalised thallium flux (F/F0 slope) Value: ?
Data returned: 0.00959

* * *

experiment: DUSP6 inhibitors restoring Erk phosphorylation by chemical complementation, primary imaging in DUSP6-transfected HeLa (AID 609); conditions: HeLa MKP-3 transfected, phospho-Erk imaging KS statistic; measured here: nuclear c-Myc green intensity z-score; at 10 µM; cells stimulated with TPA for 15 min
Each entry falls into one class according to its z-score; the ranges are class 1 (below -0.5), class 2 (-0.5 to below 0.9), class 3 (0.9 or more)

Data request: Could you place CCOC(=O)C1(C(=O)OCC)C(c2ccccc2)CC(O)N1C(C)=O (stereo not given) in its proper category? Many thanks.
Data returned: class 3

Data request: Could you place CC(C)Oc1ccc2c(=O)c(-c3ccccc3)coc2c1 in its proper category? Many thanks.
Data returned: class 1

Data request: Could you place C=CCn1cnc2c(c1=O)c1nc3ccccc3nc1n2-c1ccc(C)cc1 in its proper category? Many thanks.
Data returned: class 1

Data request: Could you place COCCN(CCOC)C(=O)C12CCC(C)(C(=O)C1)C2(C)C (stereo not given) in its proper category? Many thanks.
Data returned: class 3

Data request: Could you place O=C(NCc1ccco1)c1cnn2c1NC(c1ccccc1)CC2C(F)(F)F (stereo not given) in its proper category? Many thanks.
Data returned: class 2

Data request: Could you place CN(C)CCCN1C(=O)C(O)=C(C(=O)c2cc3ccccc3o2)C1c1ccccc1 (stereo not given) in its proper category? Many thanks.
Data returned: class 2

Data request: Could you place C=C1[C@@H](C)C2[C@H](Cc3ccccc3)NC(=O)[C@]23OC(=O)CC[C@H](O)CCC[C@H](C)C/C=C/[C@H]3[C@@H]1O (stereo not given in full) in its proper category? Many thanks.
Data returned: class 3

Data request: Could you place Cc1c(OCC(F)(F)F)ccnc1CS(=O)c1nc2ccccc2[nH]1 (stereo not given) in its proper category? Many thanks.
Data returned: class 1

Data request: Could you place CC(O)c1n(C)c(Cl)c[n+]1C (stereo not given) in its proper category? Many thanks.
Data returned: class 2

Data request: Could you place COc1ccc(NC(=O)Nc2cccc(C(=O)N3CCOCC3)c2)cc1OC in its proper category? Many thanks.
Data returned: class 1

* * *

test: inhibitors of poly I:C-induced TLR3 signaling, primary screen, cell-based, poly I:C stimulus, luciferase, 10K MLSCN set (AID 602277); conditions: HEK293-TLR3 RL24 IRF3 luciferase reporter, at 10 µM
Activity calls are given as the source filed them.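 Rule for the calls: active = inhibition of the reporter signal at or above 50%; inactive = inhibition below 50%.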
Outcome field: choose from active, inactive

Data request: Would you mind telling me which call this test gave COc1ccc(Cn2c(N)c(C#N)c3nc4ccccc4nc32)cc1OC ?
Data returned: inactive

Data request: Would you mind telling me which call this test gave CN(C)CCOc1ccccc1Cc1ccccc1 ?
Data returned: inactive

Data request: Would you mind telling me which call this test gave O=C(O)c1ccc(COc2c(F)c(F)c(F)c(F)c2F)o1 ?
Data returned: inactive

Data request: Would you mind telling me which call this test gave COC(=O)Nc1nc2ccc(Sc3ccccc3)cc2[nH]1 ?
Data returned: inactive

Data request: Would you mind telling me which call this test gave COc1ccc(OC)c(C2=Nn3c(nnc3C3CCCCC3)SC2)c1 ?
Data returned: inactive

Data request: Would you mind telling me which call this test gave CN1C(=O)c2c(sc3c2CCCC3)NC1c1ccccc1O (stereo not drawn) ?
Data returned: inactive

Data request: Would you mind telling me which call this test gave CC(=O)OCC(=O)[C@@]12OC(C)(C)O[C@@H]1C[C@H]1[C@@H]3C[C@H](F)C4=CC(=O)C=C[C@]4(C)[C@@]3(F)[C@@H](O)C[C@@]12C ?
Data returned: inactive

Data request: Would you mind telling me which call this test gave CCOC(=O)c1c(C)n(C)c2ccc(O)c(S(=O)(=O)c3ccccc3)c12 ?
Data returned: inactive

Data request: Would you mind telling me which call this test gave Cc1noc(NS(=O)(=O)c2ccc(N)cc2)c1C ?
Data returned: inactive

Data request: Would you mind telling me which call this test gave CCOC(=O)c1[nH]c2ccccc2c1NC(=O)CCN1CCN(C(=O)OCC)CC1 ?
Data returned: inactive

Data request: Would you mind telling me which call this test gave c1cc2c(cc1C1=Nn3c(nnc3C3CCCCC3)SC1)OCO2 ?
Data returned: inactive

Data request: Would you mind telling me which call this test gave CS(=O)(=O)Nc1ccc([N+](=O)[O-])cc1Oc1ccccc1 ?
Data returned: inactive

Data request: Would you mind telling me which call this test gave Nc1nnnn1/N=C/c1ccccn1 ?
Data returned: inactive

Data request: Would you mind telling me which call this test gave CCCC(=O)Nc1ncnc2c1ncn2[C@@H]1O[C@@H]2COP(=O)(O)O[C@H]2[C@H]1OC(=O)CCC ?
Data returned: inactive

Data request: Would you mind telling me which call this test gave Cn1ccnc1SCCC#N ?
Data returned: inactive

Data request: Would you mind telling me which call this test gave CCC(=O)Oc1ccc(C(CC)C(CC)c2ccc(OC(=O)CC)cc2)cc1 (stereo not drawn) ?
Data returned: inactive

Data request: Would you mind telling me which call this test gave COCc1cc(=O)[nH]c(Nc2nc3ccccc3o2)n1 ?
Data returned: inactive

Data request: Would you mind telling me which call this test gave CCN(CCCCOC(=O)c1ccc(OC)c(OC)c1)C(C)Cc1ccc(OC)cc1 (stereo not drawn) ?
Data returned: active

Data request: Would you mind telling me which call this test gave C=C1[C@@H](C)C2[C@H](Cc3ccccc3)NC(=O)[C@]23OC(=O)CC[C@H](O)CCC[C@H](C)C/C=C/[C@H]3[C@@H]1O (stereo partly drawn) ?
Data returned: inactive

Data request: Would you mind telling me which call this test gave Cc1csc(NC(=O)CSc2nsc(SCC(=O)Nc3nc(C)cs3)c2C#N)n1 ?
Data returned: inactive

Data request: Would you mind telling me which call this test gave CCc1nc2sc3c(c2c(=O)o1)CCCC3 ?
Data returned: inactive

Data request: Would you mind telling me which call this test gave CN(CC(O)COc1ccc(OCC(O)CN(C)C2CCCCC2)cc1)C1CCCCC1 (stereo not drawn) ?
Data returned: active

Data request: Would you mind telling me which call this test gave COc1ccc(CCN(C)CCCC(C#N)(c2cc(OC)c(OC)c(OC)c2)C(C)C)cc1OC (stereo not drawn) ?
Data returned: inactive

Data request: Would you mind telling me which call this test gave CCCCCC#CCC#CCC#CCC#CCCCC(=O)O ?
Data returned: inactive

Data request: Would you mind telling me which call this test gave CCC1=C(C(=O)OC)C(c2cc(OC)ccc2OC)C(C#N)=C(N)O1 (stereo not drawn) ?
Data returned: inactive

Data request: Would you mind telling me which call this test gave Cc1nc(-c2coc3cc(OCC(=O)O)ccc3c2=O)cs1 ?
Data returned: inactive

Data request: Would you mind telling me which call this test gave Cc1cc(C)nc(NC(=O)c2ccc(OC(C)C)cc2)n1 ?
Data returned: inactive

Data request: Would you mind telling me which call this test gave Cc1oc2nc(SCCCC(=O)NCCCO)nc(N)c2c1C ?
Data returned: inactive

Data request: Would you mind telling me which call this test gave CNCCC=C1c2ccccc2CCc2ccccc21 ?
Data returned: inactive

Data request: Would you mind telling me which call this test gave CO[C@@]1(NC(=O)CSCC#N)C(=O)N2C(C(=O)O)=C(CSc3nnnn3C)CS[C@@H]21 ?
Data returned: inactive

Data request: Would you mind telling me which call this test gave O=C(O)c1ccccc1S ?
Data returned: inactive

Data request: Would you mind telling me which call this test gave CCC(=O)O[C@@H]1CC(=O)O[C@H](C)CC=CC=C[C@@H](O)[C@H](C)C[C@H](CC=O)[C@H](O[C@H]2O[C@H](C)[C@@H](O[C@H]3C[C@@](C)(O)[C@@H](OC(=O)CC)[C@H](C)O3)[C@H](N(C)C)[C@H]2O)[C@H]1OC ?
Data returned: inactive

Data request: Would you mind telling me which call this test gave Cn1c(=O)n(CCC(=O)O)c2ccccc21 ?
Data returned: inactive

Data request: Would you mind telling me which call this test gave Cc1nc2sc(C#N)c(N)c2c2c1CCCC2 ?
Data returned: inactive

Data request: Would you mind telling me which call this test gave N#CCc1nc2c3c4c(sc3ncn2n1)CCCC4 ?
Data returned: inactive

Data request: Would you mind telling me which call this test gave Cc1nc2c(o1)CCc1ccccc1C2O (stereo not drawn) ?
Data returned: inactive

Data request: Would you mind telling me which call this test gave CC[C@H](C)C(=O)O[C@H]1C[C@@H](C)C=C2C=C[C@H](C)[C@H](CC[C@@H]3C[C@@H](O)CC(=O)O3)[C@H]21 ?
Data returned: inactive

Data request: Would you mind telling me which call this test gave Cc1cc(O)c(C(C)C)cc1N=C1CSC(=O)N1 ?
Data returned: inactive

Data request: Would you mind telling me which call this test gave COC(=O)c1cc(Br)c(=O)n(Cc2cccnc2)c1 ?
Data returned: inactive

Data request: Would you mind telling me which call this test gave CCOC(=O)[C@H](CCc1ccccc1)N[C@@H](C)C(=O)N1CCC[C@H]1C(=O)O ?
Data returned: inactive

Data request: Would you mind telling me which call this test gave Cc1nc2sccn2c(=O)c1CCN1CCC(=C(c2ccc(F)cc2)c2ccc(F)cc2)CC1 ?
Data returned: inactive

Data request: Would you mind telling me which call this test gave CCN(CC)CCCN1C(=O)C(=O)/C(=C(/O)c2ccc(C)cc2)C1c1ccccn1 (stereo not drawn) ?
Data returned: inactive

Data request: Would you mind telling me which call this test gave Cn1c(SCC(=O)N2CCOCC2)nnc1-c1cccc(NC(=O)c2ccccc2F)c1 ?
Data returned: inactive
